molecular target: Thyrotropin-releasing hormone receptor (Homo sapiens) (UniProt P34981); assay: qHTS for Small Molecule Agonists and Allosteric Enhancers of Human TRH Receptor: Validation Screen for Agonists (AID 493127); details: TRH receptor agonist cell assay; at 2 µM; hits give high values;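 note: intracellular calcium rise by fluo-8 fluorescence before TRH EC20 addition; 0% is about no effect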
Sequence (P34981 whole entry, looked up): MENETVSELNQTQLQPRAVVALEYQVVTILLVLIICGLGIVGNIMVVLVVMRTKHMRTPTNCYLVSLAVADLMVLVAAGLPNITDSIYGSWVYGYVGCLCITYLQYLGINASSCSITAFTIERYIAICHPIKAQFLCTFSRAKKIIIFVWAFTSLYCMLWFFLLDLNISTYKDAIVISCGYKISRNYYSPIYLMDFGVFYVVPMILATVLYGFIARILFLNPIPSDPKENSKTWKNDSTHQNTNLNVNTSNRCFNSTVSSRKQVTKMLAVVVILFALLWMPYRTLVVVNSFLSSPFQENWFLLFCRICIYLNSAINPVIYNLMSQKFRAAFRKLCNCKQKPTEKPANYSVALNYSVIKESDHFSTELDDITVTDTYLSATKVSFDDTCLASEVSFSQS
result-type: activation (%)
State the answer as a number, implicitly in %.

>>> val("C=CCN1CCc2cc(O)c(O)cc2C(c2ccccc2)C1 (stereo not drawn)")
1.38
>>> val("NCCCCN=C(N)N")
0.812
>>> val("Cn1cc(C(=O)OCC2CCN(CCNS(C)(=O)=O)CC2)c2ccccc21")
0.688
>>> val("OC[C@H]1NC[C@@H](O)[C@@H]1O")
1.19
>>> val("O=c1[nH]c2cc(Cl)ccc2c(O)c1-c1ccc(Oc2ccccc2)cc1")
0.5
>>> val("COC1(C2=NCCN2)COc2ccccc2O1 (stereo not drawn)")
1.62
>>> val("C[N+](C)(C)CC=O")
1.56
>>> val("Cc1cccc(C2CN(C)CCc3c2cc(O)c(O)c3Cl)c1 (stereo not drawn)")
1
>>> val("O=c1ccc2c(OCCCCc3ccccc3)c3ccoc3cc2o1")
-9.69
>>> val("NCCCNCCCCNCCCN")
0.688

Request: Provide measured activation value, entry: O=c1cc(O)cc(/C=C/c2ccc(O)c(O)c2)o1
Response: -0.438

Request: Provide measured activation value, entry: CCCCCC[C@@H]([C@@H](C)O)n1cnc2c(N)ncnc21
Response: 0.875

Request: Provide measured activation value, entry: CCN(CC)CCOC(=O)c1cc(Cl)c(N)cc1OC
Response: 1.5

Request: Provide measured activation value, entry: N[C@H](C(=O)O)[C@H](O)C(=O)O
Response: 0.0625

Request: Provide measured activation value, entry: CCCCCCCCCCCCCCSCC(=O)O
Response: 0.688

====

assay: Natriuretic polypeptide receptor (hNpr1) antagonism - Pilot counterscreen GloSensor control cell line (AID 1347045); conditions: HEK293 cGMP GloSensor cells, SNP-stimulated luminescence, 20 min; series mostly up to 38.3 µM
Results filed as inconclusive are left out. Active and inactive are the calls of the source. Calls come from the whole dose curve.
Please answer using one outcome listed in active, inactive

>>> classification("OC[C@H]1O[C@H](n2cnc3c(N[C@H]4CCC[C@@H]4O)ncnc32)[C@H](O)[C@@H]1O")
"inactive"
>>> classification("Nc1ncnc2c1ncn2C1CCCC1")
"inactive"
>>> classification("O=C(O)C1=CCCN(CCON=C(c2ccccc2)c2ccccc2)C1")
"inactive"
>>> classification("COc1ccccc1N1CCN(CCN(C(=O)c2ccc(F)cc2)c2ccccn2)CC1")
"inactive"
>>> classification("CC#CCOC(=O)c1c(C)nc2sc3c(c2c1N)CCC(O)C3 (stereo not given)")
"inactive"
>>> classification("NC1(C(=O)O)CCCCC1")
"inactive"
>>> classification("Cc1nc(N=Nc2ccc(S(=O)(=O)O)cc2S(=O)(=O)O)c(COP(=O)(O)O)c(C=O)c1O")
"inactive"
>>> classification("C=C1C(=O)O[C@@H]2[C@H]3O[C@]3(C)CCC=C(C)CC[C@@H]12")
"active"

Request: Look up the recorded call for O=C(c1ccc2c(c1)OCCO2)N1CCCCC1 in this test.
Response: inactive

Request: Look up the recorded call for COC1(C2=NCCN2)COc2ccccc2O1 (stereo not given) in this test.
Response: inactive

====

assay: qHTS Assay for Identifying Gametocytocidal Compounds (AID 743244);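 note: % is set by controls: 0 for no effect and ±100 for the full control effect; actives lower the fluorescent signal which means gametocytes are killed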; settings: P. falciparum 3D7 stage III-V gametocytes, alamarBlue, 72 h; hits give low values
Inconclusive results are not listed.
As shown below, each of these molecules has a reported max response value.
State the answer as a number, implicitly in %.

>>> val("C[C@H](NC(=O)/C(C#N)=C/c1ccc(O)c(O)c1)c1ccccc1")
-11
>>> val("O=C1NC(=O)c2cc(Nc3ccccc3)c(Nc3ccccc3)cc21")
5.21
>>> val("NC1(C(=O)O)CCc2cc(C(=O)O)ccc21 (centres undefined)")
9.78
>>> val("O=C(O)C1=CCNCC1")
2.03
>>> val("CC1C(=O)N(C)C(=O)c2nc[nH]c21 (centres undefined)")
38.8

Request: Provide measured max response value, entry: COC(=O)C(N)Cc1ccc(Cl)cc1 (centres undefined)
Response: 4.72

Request: Provide measured max response value, entry: NC1CCN(O)C1=O (centres undefined)
Response: 19.4

Request: Provide measured max response value, entry: CCCCOc1cc(CC2CNC(=O)N2)ccc1OC (centres undefined)
Response: 22.4

====

Biological target: Tumor susceptibility gene 101 protein (Homo sapiens) (UniProt Q99816)
Sequence (Q99816 whole entry, looked up): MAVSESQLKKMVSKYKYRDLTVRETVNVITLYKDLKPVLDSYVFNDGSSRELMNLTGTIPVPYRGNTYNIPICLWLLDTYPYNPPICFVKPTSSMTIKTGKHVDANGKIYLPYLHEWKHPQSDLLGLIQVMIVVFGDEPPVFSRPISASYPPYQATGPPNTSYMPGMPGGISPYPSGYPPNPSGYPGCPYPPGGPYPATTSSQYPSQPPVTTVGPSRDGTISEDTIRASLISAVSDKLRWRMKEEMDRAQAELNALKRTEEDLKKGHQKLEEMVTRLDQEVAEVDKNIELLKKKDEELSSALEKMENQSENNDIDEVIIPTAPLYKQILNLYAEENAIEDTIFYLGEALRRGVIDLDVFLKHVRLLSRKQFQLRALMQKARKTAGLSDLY
Experiment: qHTS Validation Assay for Iinhibitors of HIV-1 Budding by Blocking the Interaction of PTAP/TSG101 (AID 485342); note: 0% is about no effect
Conditions: TSG101-PTAP binding, fluorescence polarization, 4-point titration; series mostly up to 115 µM
Description: NIH Molecular Libraries Probe Production Network [MLPCN] NIH Chemical Genomics Center [NCGC] PI Name: Dr. Eric Freed, NCI Stages of the HIV-1 replication cycle, specifically virus assembly and release, provide underexploited targets for the development of novel antiviral inhibitors. […] A fluorescence anisotropy assay has been developed to quantitatively measure the PTAP-Tsg101 interaction which can be used to screen for inhibitors of this interaction. […]
Calls of active or inactive are those of the source. Calls come from the whole dose curve.
result-type: outcome

Consider the reported outcome for these molecules:
>>> val("O=[N+]([O-])c1cccc2cn[nH]c12")
"inactive"
>>> val("COc1ccc(CCN(C)CCc2ccc(OC)c(OC)c2)cc1OC")
"inactive"
>>> val("CN(C)S(=O)(=O)c1ccc2c(c1)/C(=C/c1cc3c([nH]1)CCCC3)C(=O)N2")
"inactive"
>>> val("OC[C@H]1NC[C@@H](O)[C@@H]1O")
"inactive"
>>> val("CN(C)C(=O)/N=N/C(=O)N(C)C")
"inactive"

We now examine a further molecule.
Request: Provide measured outcome value, entry: COc1ccc(CCn2nnnc2C2(c3ccc(C)cc3)CC2)cc1
Response: inactive

====

test: qHTS for differential inhibitors of proliferation of Plasmodium falciparum line GB4 (AID 1816); details: Plasmodium falciparum GB4 proliferation inhibition; series mostly up to 28.7 µM;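 note: parasite growth measured after 72 h incubation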
Results filed as inconclusive are left out. Calls of active or inactive are those of the source. Calls come from the whole dose curve; as a rule, active = well fitted curve in the direction sought with a large enough effect; inconclusive = small, poorly fitted or top-dose-only effect, or another doubt; inactive = no such curve, though single readings can be large or run the other way.
Please answer using one outcome listed in label 1 for active, label 0 for inactive

>>> classification("Clc1nccc2c1ccc1ccccc12")
"label 0"
>>> classification("N#C/C(=C\\c1ccc(O)c(O)c1)C(=O)NCCc1ccccc1")
"label 1"
>>> classification("CC(C)Cn1c(=O)n(C)c(=O)c2[nH]cnc21")
"label 0"
>>> classification("CC[N+](CC)(CC)CC(=O)Nc1c(C)cccc1C")
"label 0"

Request: Look up the recorded call for COc1cccc(OC)c1OCCNCC1CSc2ccccc2O1 (centres undefined) in this test.
Response: label 1

Request: Look up the recorded call for CCCCCCCCCCCCCCSCC(=O)O in this test.
Response: label 0

Request: Look up the recorded call for CN[C@H](CC(=O)O)C(=O)O in this test.
Response: label 0

Request: Look up the recorded call for C#CCn1c(=O)c2c(ncn2C)n(C)c1=O in this test.
Response: label 0

Request: Look up the recorded call for COc1ccc2c(c1)c(CC(=O)O)c(C)n2C(=O)c1ccccc1 in this test.
Response: label 0

Request: Look up the recorded call for C=C(C)C1CC=C(C(=O)O)CC1 (centres undefined) in this test.
Response: label 0

Request: Look up the recorded call for Cc1nc2c(OCc3ccccc3)cccn2c1CC#N in this test.
Response: label 0

Request: Look up the recorded call for O=C(O)c1ccccc1Nc1ccccc1 in this test.
Response: label 0

Request: Look up the recorded call for CC(N)(Cc1ccc(O)cc1)C(=O)O (centres undefined) in this test.
Response: label 0

Request: Look up the recorded call for Fc1ccc(CN(C2=NCCN2)c2c(Cl)cccc2Cl)cc1 in this test.
Response: label 1

====

test: qHTS for differential inhibitors of proliferation of Plasmodium falciparum line Dd2 (AID 1882); details: Plasmodium falciparum Dd2 proliferation inhibition; series mostly up to 28.7 µM; note: nearly all actives have a fitted effect of over 65% in size; note: potency is the fitted concentration of half-maximal effect
Inconclusive results are not listed. Calls of active or inactive are those of the source. Calls follow the shape of the dose curve; as a rule, active = well fitted inhibition curve with a large enough effect; inconclusive = small, poorly fitted or top-dose-only effect; inactive = flat fitted curve, though single readings scatter.
result-type: Potency

Consider the reported Potency for these compounds:
>>> val("CCCn1c(=O)c2c(ncn2C)n(CCC)c1=O")
"inactive"
>>> val("NC(=O)CC[C@H](N)C(=O)O")
"inactive"
>>> val("O=c1cc(-c2ccccc2)[nH]c2nc(Cl)ccc12")
"inactive"
>>> val("[Li+]")
"inactive"
>>> val("CCOC(=O)C12CC1/C(=N/O)c1ccccc1O2 (configuration not stated)")
"inactive"

Request: Provide measured Potency value, entry: CN(C)S(=O)(=O)c1ccc2c(c1)/C(=C/c1cc3c([nH]1)CCCC3)C(=O)N2
Response: 7.08 µM (active)

Request: Provide measured Potency value, entry: COc1ccc(-c2ccc(N)[n+](CCCC(=O)O)n2)cc1
Response: inactive

Values from PubChem BioAssay (NCATS)
